biological target: BChE (EC 3.1.1.8, equine serum) (Equus caballus, UniProt P81908); assay: biochemical; format: biochemical; details: Ellman's method, 5 min pre-incubation at 4 °C, triplicate
Sequence (P81908 whole entry): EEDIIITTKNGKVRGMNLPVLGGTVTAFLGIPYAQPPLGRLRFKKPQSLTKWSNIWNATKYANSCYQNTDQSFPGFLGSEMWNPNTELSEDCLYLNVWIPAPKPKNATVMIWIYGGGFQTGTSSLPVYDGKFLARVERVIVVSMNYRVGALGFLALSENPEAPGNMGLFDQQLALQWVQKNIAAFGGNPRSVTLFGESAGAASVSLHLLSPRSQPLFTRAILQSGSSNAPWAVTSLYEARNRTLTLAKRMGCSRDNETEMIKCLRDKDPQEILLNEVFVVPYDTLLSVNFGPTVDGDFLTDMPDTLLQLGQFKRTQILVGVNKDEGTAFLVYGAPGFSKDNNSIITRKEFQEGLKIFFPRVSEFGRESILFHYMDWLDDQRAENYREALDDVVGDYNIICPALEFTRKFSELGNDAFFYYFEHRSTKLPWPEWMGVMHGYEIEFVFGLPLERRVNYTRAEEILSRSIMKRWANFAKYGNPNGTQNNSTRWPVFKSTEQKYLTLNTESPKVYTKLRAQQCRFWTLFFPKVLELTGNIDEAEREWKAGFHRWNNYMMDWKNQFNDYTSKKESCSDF
observable: IC50 (µM)
Answer format: numeric, µM implied, no suffix.

Incoming: So what does the record say about IC50 for COc1ccc(CCn2nnc3ccc4sccc4c32)cc1 [Compound 9] ?
Outgoing: 18.6

Incoming: So what does the record say about IC50 for CCOC(=O)CCn1nnc2ccc3sccc3c21 [Compound 6] ?
Outgoing: 39.6

Incoming: So what does the record say about IC50 for c1csc(Cn2nnc3ccc4sccc4c32)c1 [Compound 5] ?
Outgoing: 23.4

New cases:
Incoming: So what does the record say about IC50 for COc1ccc(Cn2nnc3ccc4sccc4c32)cc1 [Compound 3] ?
Outgoing: 25.5

Incoming: So what does the record say about IC50 for Fc1ccc(Cn2nnc3c2-c2ccsc2CC3)cc1 [Compound 13] ?
Outgoing: 58

Incoming: So what does the record say about IC50 for OCCCCn1nnc2ccc3sccc3c21 [Compound 12] ?
Outgoing: 107

Incoming: So what does the record say about IC50 for FC(F)(F)Oc1ccc(Cn2nnc3ccc4sccc4c32)cc1 [Compound 8] ?
Outgoing: 214

Incoming: So what does the record say about IC50 for CC(C)n1nnc2ccc3ccc(Cl)cc3c21 [Compound 1] ?
Outgoing: 39.6

Incoming: So what does the record say about IC50 for OCCCCn1nnc2c1-c1ccsc1CC2 [Compound 19] ?
Outgoing: 74.1

Incoming: So what does the record say about IC50 for Fc1ccc(Cn2nnc3ccc4sccc4c32)cc1 [Compound 4] ?
Outgoing: 37.5
